// NB: equality with 100 °C counts as Not fulfilled; only glass transition temperature strictly below is Fulfilled

{"columns": ["Compound", "Answer Label"],
 "data": [
  ["*Oc1ccc(Oc2ccc(NC(=O)c3cc(C(=O)Nc4ccc(*)cc4)cc(C(C)(C)C)c3)cc2)cc1 (repeat unit)", "Not fulfilled"],
  ["*c1ccc(C(=O)OCCCCCCCCCCCCOC(=O)c2ccc(-c3nnc(*)s3)cc2)cc1 (repeat unit)", "Fulfilled"],
  ["*Oc1ccc2ccc(Oc3ccc(C(=O)Nc4ccc(Oc5ccc(C(C)(C)c6ccc(Oc7ccc(NC(=O)c8ccc(*)cc8)cc7)cc6)cc5)cc4)cc3)cc2c1 (repeat unit)", "Not fulfilled"],
  ["*c1c(C)cc(Cc2cc(C)c(N3C(=O)c4ccc(Oc5cccc6c(Oc7ccc8c(c7)C(=O)N(*)C8=O)cccc56)cc4C3=O)c(C)c2)cc1C (repeat unit)", "Not fulfilled"],
  ["*Oc1ccc(/C(=C/c2cc(OC)c(/C=C(/c3ccc(*)cc3)c3ccc(C(F)(F)F)cc3)cc2OC)c2ccc(C(F)(F)F)cc2)cc1 (repeat unit)", "Not fulfilled"],
  ["*Oc1ccc(C2(c3ccc(OC(=O)CCCC(*)=O)cc3)c3cc(OC)ccc3-c3ccc([N+](=O)[O-])cc32)cc1 (repeat unit)", "Not fulfilled"],
  ["*Nc1ccc(C(c2ccc(NC(=O)c3cccc(C(*)=O)c3)cc2)(P2(=O)Oc3ccccc3-c3ccccc32)P2(=O)Oc3ccccc3-c3ccccc32)cc1 (repeat unit)", "Not fulfilled"],
  ["*Oc1cccc(OC(=O)Oc2ccc(C(C)(C)c3ccc(OC(*)=O)cc3)cc2)c1 (repeat unit)", "Fulfilled"],
  ["*C(=O)c1ccc2c(c1)C(=O)N(c1ccc(C(=O)c3ccc(C(=O)c4ccc(N5C(=O)c6ccc(*)cc6C5=O)cc4)cc3)cc1)C2=O (repeat unit)", "Not fulfilled"],
  ["*Oc1ccc(C(=O)c2ccc(C(=O)c3ccc(*)c(C(C)C)c3)cc2)cc1C (repeat unit)", "Not fulfilled"],
  ["*CC(O)COc1ccc(C2(C)CC(C)(C)c3cc(O*)ccc32)cc1 (repeat unit)", "Not fulfilled"],
  ["*CCCCCCCN1C(=O)c2ccc(C(c3ccc4c(c3)C(=O)N(*)C4=O)(C(F)(F)F)C(F)(F)F)cc2C1=O (repeat unit)", "Not fulfilled"],
  ["*CC(O)CN(*)c1ccccc1 (repeat unit)", "Fulfilled"]
]}
